target: HLA-A2.1 (Homo sapiens, UniProt P04439, D140Y/D185E/D98H/E176V/E277Q/G131W/G231S/I119V/I121R/I166T/I218V/L300P/L318F/N151K/N90K/P208A/P217A/Q86G/Q94H/R138H/R169H/T345S); assay: Competition assay for peptide binding to HLA-A2.1 (inhibition of A clone 12 lysis of M1-pulsed EA2 targets)
recordedMetric: A2.1-binding activity / affinity, in words

Example entries and their recorded answers appear below.
sequenceText: ITLEDSSGNL [hu-wt-p53: 255-264]
dataValue: intermediate

sequenceText: RMPEAAPPV [hu-wt-p53: 65-73]
dataValue: high affinity

sequenceText: PLDGEYFTL [hu-wt-p53: 322-330]
dataValue: intermediate

sequenceText: LLPENNVLSPL [hu-wt-p53: 25-35]
dataValue: high affinity

## Task Entry GLAPPQHLI [hu-wt-p53: 187-195] : reported A2.1-binding activity / affinity, in words = ?
## Result high
